Tested on: wheat
Experiment: Test A preemergence
Type: in vivo, Triticum aestivum
Conditions: preemergence, 500 g ai/ha, visual injury after approx. 10 days, 0 to 100 scale (0 no effect, 100 complete control)
# Condition met = Wheat plant response rating below 40 (exclusive); Condition not met = Wheat plant response rating at/above 40

Qu. For CCCNC(=O)c1cc(CC)n(Cc2cccc(C(F)(F)F)n2)n1 [Compound 88] , is the recorded Wheat plant response rating below the cut-off of 40?
Ans. Condition met

Qu. For CCc1cc(C(=O)NCC(C)C)nn1Cc1cccc(OC(F)(F)F)c1 [Compound 60] , is the recorded Wheat plant response rating below the cut-off of 40?
Ans. Condition met

Qu. For CCCNC(=O)c1cc(OCC)n(Cc2ccnc(C(F)(F)F)c2)n1 [Compound 187] , is the recorded Wheat plant response rating below the cut-off of 40?
Ans. Condition not met

Qu. For CCONC(=O)c1cc(CC)n(Cc2ccnc(OC(F)F)c2)n1 [Compound 131] , is the recorded Wheat plant response rating below the cut-off of 40?
Ans. Condition not met

Qu. For Cc1cc(C(=O)NCC(F)(F)F)nn1Cc1ccnc(C(F)(F)F)c1 [Compound 74] , is the recorded Wheat plant response rating below the cut-off of 40?
Ans. Condition met

Qu. For O=C(NCC(F)(F)F)c1cc(Br)n(Cc2cccc(C(F)(F)F)c2)n1 [Compound 161] , is the recorded Wheat plant response rating below the cut-off of 40?
Ans. Condition met

New cases:
Qu. For CCc1cc(C(=O)NOC(C)C)nn1Cc1cccc(OC(F)(F)F)c1 [Compound 70] , is the recorded Wheat plant response rating below the cut-off of 40?
Ans. Condition met

Qu. For CCCc1cc(C(=O)Nc2ccc(F)cc2)nn1Oc1ccnc(C(F)(F)F)c1 [Compound 94] , is the recorded Wheat plant response rating below the cut-off of 40?
Ans. Condition met

Qu. For CCCc1cc(C(=O)NC(C)C)nn1Cc1ccnc(C(F)(F)F)c1 [Compound 186] , is the recorded Wheat plant response rating below the cut-off of 40?
Ans. Condition not met

Qu. For O=C(NCC(F)(F)F)c1cc(Cl)n(Cc2cccc(C(F)(F)F)c2)n1 [Compound 170] , is the recorded Wheat plant response rating below the cut-off of 40?
Ans. Condition met

Qu. For CCc1cc(C(=O)NC2CC2)nn1Cc1nnc(C(F)(F)F)o1 [Compound 172] , is the recorded Wheat plant response rating below the cut-off of 40?
Ans. Condition met

----------
Test system: oat, wild
Experiment: Test C postemergence
Type: in vivo, Avena fatua
Settings: postemergence, 250 g ai/ha; scale 0 to 100 (0 no effect, 100 complete control)
# criterion met = Plant response rating, Oat, Wild below 40 (exclusive); criterion not met = Plant response rating, Oat, Wild at/above 40

Qu. For `CCOc1cc(C(=O)NOC(C)C)nn1Cc1ccnc(C(F)(F)F)c1` , is the recorded Plant response rating, Oat, Wild below the cut-off of 40?
Ans. criterion met

Qu. For `CCCNC(=O)c1cc(CC)n(Cc2nc(C(F)(F)F)nn2C)n1` , is the recorded Plant response rating, Oat, Wild below the cut-off of 40?
Ans. criterion met

Qu. For `CCCc1cc(C(=O)NC(C)C)nn1Cc1ccnc(C(F)(F)F)c1` , is the recorded Plant response rating, Oat, Wild below the cut-off of 40?
Ans. criterion not met

Qu. For `CCCNC(=O)c1cc(OCC)n(Cc2ccnc(OC(F)F)c2)n1` , is the recorded Plant response rating, Oat, Wild below the cut-off of 40?
Ans. criterion not met

Qu. For `CCCc1cc(C(=O)NC2CC2)nn1Cc1cc(C(F)(F)F)nn1C` , is the recorded Plant response rating, Oat, Wild below the cut-off of 40?
Ans. criterion met

Qu. For `CCc1cc(C(=O)NCC(F)(F)F)nn1Cc1ccnc(Br)c1` , is the recorded Plant response rating, Oat, Wild below the cut-off of 40?
Ans. criterion met

Qu. For `CCONC(=O)c1cc(CC)n(Cc2ccnc(OC(F)F)c2)n1` , is the recorded Plant response rating, Oat, Wild below the cut-off of 40?
Ans. criterion met

Qu. For `O=C(NC1CC1)c1cc(CCCl)n(Cc2ccnc(C(F)(F)F)c2)n1` , is the recorded Plant response rating, Oat, Wild below the cut-off of 40?
Ans. criterion not met

New cases:
Qu. For `CCc1cc(C(=O)NCC(F)(F)F)nn1Cc1cccc(OC(F)(F)F)c1` , is the recorded Plant response rating, Oat, Wild below the cut-off of 40?
Ans. criterion met

Qu. For `CCc1cc(C(=O)NOC(C)C)nn1Cc1cccc(OC(F)(F)F)c1` , is the recorded Plant response rating, Oat, Wild below the cut-off of 40?
Ans. criterion met

----------
System: velvetleaf
Assay: Test A preemergence
Assay type: in vivo, Abutilon theophrasti
Details: preemergence, 500 g ai/ha, visual injury after approx. 10 days, 0 to 100 scale (0 no effect, 100 complete control)
Examples of compounds with documented Velvetleaf plant response rating follow.

Lab book: Velvetleaf plant response rating of `CCc1cc(-c2ccc(C(F)(F)F)cc2)nn1Cc1ccnc(C(F)(F)F)c1` noted as 100

Lab book: Velvetleaf plant response rating of `CCCNC(=O)c1cc(CC)n(Cc2nc(C(F)(F)F)nn2C)n1` noted as 100

Lab book: Velvetleaf plant response rating of `CCONC(=O)c1cc(CC)n(Cc2ccnc(OC(F)F)c2)n1` noted as 100

New cases:
Lab book: Velvetleaf plant response rating of `CCc1cc(C(=O)NCC(F)(F)F)nn1Cc1nc(C(F)(F)F)no1` noted as 50

Lab book: Velvetleaf plant response rating of `COCc1cc(C(=O)NC(C)C)nn1Cc1ccnc(C(F)(F)F)c1` noted as 100

Lab book: Velvetleaf plant response rating of `O=C(NCC(F)(F)F)c1cc(Cl)n(Cc2cccc(C(F)(F)F)c2)n1` noted as 0

Lab book: Velvetleaf plant response rating of `CCNC(=O)c1cc(CC)n(Cc2cc(C(F)(F)F)nn2C)n1` noted as 100

Lab book: Velvetleaf plant response rating of `CCCCc1cc(C(=O)NOCC)nn1Cc1ccnc(C(F)(F)F)c1` noted as 20

Lab book: Velvetleaf plant response rating of `Cc1cc(C(=O)Nc2ccc(F)cc2)nn1Oc1ccnc(C(F)(F)F)c1` noted as 0

----------
Examples of compounds with documented Ragweed plant response rating follow.
Tested on: ragweed
Experiment: Test C preemergence
Type: in vivo, Ambrosia elation
Conditions: preemergence, 62 g ai/ha; scale 0 to 100 (0 no effect, 100 complete control), 13 to 15 days
In your answer, state the number alone without any accompanying words.

Illustrative cases are given below, each with its answer.
Lab book: Ragweed plant response rating of `CCCc1cc(C(=O)NOC(C)C)nn1Cc1cc(C(F)(F)F)nn1C` noted as 80

Lab book: Ragweed plant response rating of `CCc1cc(C(=O)NCC(F)(F)F)nn1Cc1nc(C(F)(F)F)nn1C` noted as 98

Lab book: Ragweed plant response rating of `CCCc1cc(C(=O)NCC(F)(F)F)nn1Cc1ccnc(OC(F)F)c1` noted as 25

Lab book: Ragweed plant response rating of `CCCc1cc(C(=O)NC(C)C)nn1Cc1ccnc(C(F)(F)F)c1` noted as 100

New cases:
Lab book: Ragweed plant response rating of `O=C(NCC(F)(F)F)c1cc(CCF)n(Cc2ccnc(C(F)(F)F)c2)n1` noted as 90

----------
Examples of compounds with documented Wheat plant response rating follow.
Tested on: wheat
Test: Test A postemergence
Assay type: in vivo, Triticum aestivum
Conditions: Postemergence, 500 g ai/ha; 0 to 100 scale (0 no effect, 100 complete control)
In your answer, state the number alone without any accompanying words.

Illustrative cases are given below, each with its answer.
Lab book: Wheat plant response rating of `CCCc1cc(C(=O)NC2CC2)nn1Cc1ccnc(OC(F)F)c1` noted as 90

Lab book: Wheat plant response rating of `CCONC(=O)c1cc(C)n(Cc2ccnc(C(F)(F)F)c2)n1` noted as 0

Lab book: Wheat plant response rating of `O=C(NC1CC1)c1cc(CCCl)n(Cc2ccnc(C(F)(F)F)c2)n1` noted as 90

Lab book: Wheat plant response rating of `COCc1cc(C(=O)NCC(F)(F)F)nn1Cc1cc(C(F)(F)C(F)(F)F)nn1C` noted as 0

Lab book: Wheat plant response rating of `CCCNC(=O)c1cc(COC)n(Cc2ccnc(C(F)(F)F)c2)n1` noted as 40

// next item, Wheat plant response rating requested
Lab book: Wheat plant response rating of `CCCCNC(=O)c1cc(Br)n(Cc2cccc(C(F)(F)F)c2)n1` noted as 0

----------
System: waterhemp
Assay: Test C preemergence
Type: in vivo, Amaranthus rudis
Conditions: preemergence, 31 g ai/ha; visual rating, scale 0 to 100 (0 no effect, 100 complete control), 13 to 15 days
Examples of compounds with documented Waterhemp plant response rating follow.
In your answer, state the number alone without any accompanying words.

Illustrative cases are given below, each with its answer.
Lab book: Waterhemp plant response rating of `CCCc1cc(C(=O)NC2CC2)nn1Cc1ccnc(OC(F)F)c1` noted as 100

Lab book: Waterhemp plant response rating of `CCCc1cc(C(=O)NC(C)C)nn1Cc1ccnc(C(F)(F)F)c1` noted as 100

Lab book: Waterhemp plant response rating of `CCCNC(=O)c1cc(OCC)n(Cc2ccnc(OC(F)F)c2)n1` noted as 85

New cases:
Lab book: Waterhemp plant response rating of `CCOc1cc(C(=O)NCC(F)(F)F)nn1Cc1ccnc(OC(F)F)c1` noted as 100

Lab book: Waterhemp plant response rating of `CCc1cc(-c2ccc(C(F)(F)F)cc2)nn1Cc1ccnc(C(F)(F)F)c1` noted as 100

Lab book: Waterhemp plant response rating of `O=C(NC1CC1)c1cc(CCCl)n(Cc2ccnc(C(F)(F)F)c2)n1` noted as 98
